Listing: growth of selected compounds
- Test system: OVCAR-5 ovarian
- assay.procedure: NCI-60 one-dose screen, 48 h (100 = growth as untreated, 0 = no growth, -100 = all killed)
- settings: 10 µM
Compounds without any hit were thinned out: in the full panel of roughly 83,000, 20% have a hit.
# unit: % | format: bare number

Below are worked cases with known answers.
COc1ccc2nc(Cl)c(-c3cc(-c4ccccc4)nc(=S)[nH]3)cc2c1	95.1
O=c1c2ccccc2nc(COc2ccccc2)n1/N=C/c1ccc(N2CCOCC2)cc1	93.3
CN(C)c1ccc(/C=C/c2nc3ccccc3c(=O)n2CC(=O)Nc2ccccc2)cc1	89.1
CSc1nc(-c2cccc(C)c2)c2cc(-c3ccccc3)n(C)c2n1	49.6
CN1CCN(c2ccc(C(=O)/C=C/c3cc(C(F)(F)F)ccc3Cl)cc2)CC1	-91
COc1nccnc1NS(=O)(=O)c1ccc(NC2=C(Cl)C(=O)c3nc(C)ccc3C2=O)cc1	112

Moving on to another compound below.
Under OVCAR-5 ovarian, report growth for O=C(NO)c1ccc(CN2CCN(c3nc(-c4ccccc4)c4ccccc4n3)CC2)cc1 19.3
